Sequence of the target: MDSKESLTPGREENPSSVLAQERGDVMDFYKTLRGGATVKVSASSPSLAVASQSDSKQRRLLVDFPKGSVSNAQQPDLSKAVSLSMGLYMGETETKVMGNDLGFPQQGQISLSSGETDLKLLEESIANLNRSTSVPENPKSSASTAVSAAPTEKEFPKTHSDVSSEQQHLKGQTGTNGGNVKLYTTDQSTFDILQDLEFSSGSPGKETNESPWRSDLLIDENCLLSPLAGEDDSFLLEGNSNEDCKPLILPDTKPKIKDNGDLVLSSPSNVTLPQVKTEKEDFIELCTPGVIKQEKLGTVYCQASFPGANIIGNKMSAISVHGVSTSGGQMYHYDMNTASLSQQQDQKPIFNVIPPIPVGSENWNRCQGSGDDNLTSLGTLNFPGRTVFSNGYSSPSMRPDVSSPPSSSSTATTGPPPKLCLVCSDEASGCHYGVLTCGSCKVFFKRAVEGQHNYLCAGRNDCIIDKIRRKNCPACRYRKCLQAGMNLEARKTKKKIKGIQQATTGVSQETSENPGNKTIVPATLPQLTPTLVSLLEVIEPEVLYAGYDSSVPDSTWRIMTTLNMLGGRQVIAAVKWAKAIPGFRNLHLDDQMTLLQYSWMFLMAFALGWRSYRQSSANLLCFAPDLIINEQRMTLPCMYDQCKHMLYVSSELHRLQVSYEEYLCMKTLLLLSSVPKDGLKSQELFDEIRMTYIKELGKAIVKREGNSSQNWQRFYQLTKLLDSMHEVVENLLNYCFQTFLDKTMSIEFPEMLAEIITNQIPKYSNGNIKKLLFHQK
readout-kind: IC50 (nM)

a = Cc1noc(=O)c2ccc(NC(=O)C(O)(CC3CCCc4c(N)cccc43)C(F)(F)F)cc12 (centres undefined)
b = Cc1noc(=O)c2ccc(NC(=O)C(O)(CC3(C)CCCc4ccccc43)C(F)(F)F)cc12 (stereo in doubt; 35d)
c = CCC1(CC(O)(C(=O)Nc2ccc3c(=O)onc(C)c3c2)C(F)(F)F)CCCc2c([N+](=O)[O-])cccc21 (centres undefined)
d = Cc1cccc2c1CCCC2CC(O)(C(=O)Nc1ccc2c(=O)onc(C)c2c1)C(F)(F)F (stereo in doubt; 19a)
Order these compounds (above) by their IC50, from the smallest value upward. Your reply should list the labels following the order given in the request.
c, b, d, a
(c: 251 nM, b: 398 nM, d: 794 nM, a: 2000 nM)
